- SYSTEM: UniProt P38532
- RUN DESCRIPTION: decrease of HSF1-responsive luciferase luminescence – cell-based, NIH3T3, dose retest, confirmation (AID 2382);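 further: NIH3T3 fibroblasts with HSF1-driven luciferase reporter stressed by proteasome inhibitor MG132; luminescence from HSF1-driven luciferase expression after 8 hours of MG132 stress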
- Assay type: functional
The source made the active and inactive calls. No stated cut-off is given here; in the data, actives have a measured EC50 and inactives only a lower limit.
EC50 by entry:

c1ccc(CNc2nc(N3CCN(Cc4ccccc4)CC3)nc3ccccc23)cc1 > 195 µM (not active)
CC1(C)C=C2C(=NN(c3ccccc3)C(N)=C2C#N)CO1 > 195 µM (not active)
COc1ccccc1N1CCN(C(S)=Nc2ccc(F)cc2)CC1 54.6 µM (active)

**Query** So what EC50 did O=C(CCn1c(=S)oc2ccccc21)NC1CCCCCC1 get with UniProt P38532?
**Result** > 195 µM (not active)

###

- SYSTEM: Heat shock factor protein 1 (Mus musculus)
- Sequence (P38532 whole entry): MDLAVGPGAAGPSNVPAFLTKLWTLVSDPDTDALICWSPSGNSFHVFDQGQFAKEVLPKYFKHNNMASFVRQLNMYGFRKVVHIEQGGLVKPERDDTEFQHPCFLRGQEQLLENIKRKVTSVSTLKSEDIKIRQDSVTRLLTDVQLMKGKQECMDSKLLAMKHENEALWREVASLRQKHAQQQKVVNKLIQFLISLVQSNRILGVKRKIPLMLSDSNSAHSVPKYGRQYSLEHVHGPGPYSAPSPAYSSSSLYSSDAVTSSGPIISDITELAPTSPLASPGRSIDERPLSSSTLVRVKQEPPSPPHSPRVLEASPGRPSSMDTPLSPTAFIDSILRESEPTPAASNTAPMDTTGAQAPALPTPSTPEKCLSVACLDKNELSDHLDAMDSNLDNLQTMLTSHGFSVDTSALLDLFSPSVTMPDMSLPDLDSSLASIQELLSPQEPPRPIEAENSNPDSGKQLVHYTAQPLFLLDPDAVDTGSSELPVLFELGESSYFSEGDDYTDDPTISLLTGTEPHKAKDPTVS
- RUN DESCRIPTION: enhancement of HSF1-driven luciferase signal – cell-based, NIH3T3, luminescence, dose retest, confirmation (AID 435004);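 further: stress induced by proteasome inhibitor MG132 added 30 min after compound; luciferase reporter driven by HSF1 response element in NIH3T3 cells; actives raise luminescence as potentiators of the MG132 stress response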
- Assay type: functional
Activity calls are given as the source filed them. Rule as the data show it: actives have a measured EC50 and inactives only a lower limit.
Field 'call' accepts t for active, f for inactive

These recorded examples may help you get a feel for the data.
COMPOUND	LABEL CLASS
CN(Cc1ccccc1)C(=O)c1cc(-c2ccc(Br)cc2)on1	t
Cc1nn(-c2cccc(Cl)c2)c2c1C(c1ccncc1)C(C#N)=C(N)O2 (stereo unspecified)	f
CCCCN(CC)c1nc(N)c2c(N)nc(OCC)cc2c1C#N	f
COc1cccc(-c2nnc(SCc3nc4ccccc4[nH]3)n2N)c1	f

**Query** What outcome does the record of this test show for CCOC(=O)c1cccc(NC(=O)Cn2c(CC(=O)NC)nc3ccccc32)c1 ?
**Result** f

**Query** Field entry: COC(=O)c1cn(CCOc2ccc(C)cc2)c2ccccc12
**Result** f

###

EC50 by entry:
- SYSTEM: Protein RecA (Mycobacterium tuberculosis, UniProt P9WHJ3)
- RUN DESCRIPTION: Fluorescence Cell-Free Homogeneous Dose Retest to Identify Inhibitors of RecA-Intein Splicing Activity. [Related pubchem assays (depositor defined):AID2097, AID2223, AID489010, AID492950]
- Assay type: functional
Calls of active or inactive are those of the source. Rule as the data show it: actives have a measured EC50 and inactives only a lower limit.

Here is how some compounds turned out for EC50.
COMPOUND	EC50
Cc1nn(-c2cccc(Cl)c2)c2c1C(c1ccncc1)C(C#N)=C(N)O2 (stereo not drawn)	7.71 µM (active)
CC1(C)C=C2C(=NN(c3ccccc3)C(N)=C2C#N)CO1	0.297 µM (active)
CC(C)(C)NC(=O)C(c1cccs1)N(CC1CCCO1)C(=O)c1ccc(-c2ccccc2)[nH]1 (stereo not drawn)	169 µM (active)
O=C(NC1C(=O)NNC1c1ccccc1)c1ccccc1 (stereo not drawn)	4.83 µM (active)

**Query** Query for Protein RecA (Mycobacterium tuberculosis, UniProt P9WHJ3): what EC50 does the record show for CN(C)c1ccc(NC(=O)c2ccncc2)c2ccccc12 ?
**Result** 45.4 µM (active)

**Query** Now consider O=C(c1c[nH]c(C(=O)C(Cl)(Cl)Cl)c1)c1ccccc1F .
**Result** 7.39 µM (active)

**Query** // query: COc1ccc(OC)c(C(c2c(C)n[nH]c2O)c2c(C)n[nH]c2O)c1
**Result** 0.211 µM (active)

**Query** Follow-up entry: Nc1c(C(=O)NCCCc2ccccc2)c2nc3ccccc3nc2n1Cc1cccs1
**Result** 3.3 µM (active)

**Query** Same thing, different compound: O=C(c1ccco1)N1CCN(c2nc(C3CC3)nc3sc4c(c23)CCCC4)CC1
**Result** 29.6 µM (active)

**Query** What do you get for COc1ccc(C(=O)c2c(C(F)(F)F)oc3c2C(=O)c2ccccc2C3=O)cc1OC ?
**Result** 2.02 µM (active)

**Query** Again, but for Cc1ccc(C/N=C/c2[nH]c3ccc(Br)c(Cl)c3c2O)cc1
**Result** 1.43 µM (active)

**Query** // repeat for COc1ccc(CN2C(=O)NC(=O)/C(=C\NNC(=O)c3ccccc3O)C2=O)cc1 and report
**Result** 32.2 µM (active)

**Query** Now give it for COC(=O)CCSc1cc(NCCOC(C)=O)c([N+](=O)[O-])c2nonc12 too.
**Result** 4.63 µM (active)
